B1: GOLPH3 (parent)
chain: FAPLLDEQYDLATKRVRQLLDLDP

- Variants of: B1
- Assay Overview: protein stability index of a GFP-peptide fusion (GPS, HEK-293T) (PSI 1-6); higher = more stable;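 note: lentivirally expressed fusions sorted by FACS into six bins by GFP to DsRed ratio, PSI derived from sequencing read proportions per bin multiplied by bin number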
- Experimental Context: c terminus: a fixed tail appended
Readout Label: protein stability index
I'd appreciate a reply containing only the number, no unit.

| Residue Change | Assay Result |
| --- | --- |
| K14E | 2.14 |

Note protein stability index for the variant shown: D10R
2.23

Note protein stability index for the variant shown: K14A
1.76
